Tested on: HCC1143
Assay: normalised viability (% of control), CellTiter-Blue; higher = more viable cells (about 100 = DMSO control)
Conditions: 1 nM; incubation time: 72 h
assay-endpoint: normalised viability
Write the figure, then the unit, nothing else.

Incoming: I'd like to know its normalised viability. The molecule in question is `CC(C)(C)c1cc(NC(=O)Nc2ccc(-c3cn4c(n3)sc3cc(OCCN5CCOCC5)ccc34)cc2)no1`
Outgoing: 94.3%

Incoming: I'd like to know its normalised viability. The molecule in question is `COc1cccc2c1C(=O)c1c(O)c3c(c(O)c1C2=O)C[C@@](O)(C(C)=O)C[C@@H]3O[C@H]1C[C@H](N)[C@H](O)[C@H](C)O1`
Outgoing: 81.4%

Incoming: I'd like to know its normalised viability. The molecule in question is `Cn1c(=O)c(F)c(Nc2ccc(I)cc2F)c2c(=O)n(C[C@@H](O)CO)cnc21`
Outgoing: 94.1%

Incoming: I'd like to know its normalised viability. The molecule in question is `CC(C)C[C@H](NC(=O)[C@H](Cc1ccccc1)NC(=O)c1cnccn1)B(O)O`
Outgoing: 81%

====

Test system: DU-4475
Test: drug sensitivity score (DSS), CellTox Green (DSS (AUC-based score)); higher = stronger drug effect (viability inhibition or cytotoxicity); extreme values may be limits of the assay
Conditions: incubation time: 72 h
assay-endpoint: drug sensitivity score
Give your answer as a number; write no unit.

Worked set:
Incoming: I'd like to know its drug sensitivity score. The molecule in question is `COC(=O)C[C@](O)(CCCC(C)(C)O)C(=O)O[C@@H]1C(OC)=C[C@]23CCCN2CCc2cc4c(cc2[C@H]13)OCO4`
Outgoing: 0

Incoming: I'd like to know its drug sensitivity score. The molecule in question is `O=c1[nH]cc(F)c(=O)[nH]1`
Outgoing: 0

Incoming: I'd like to know its drug sensitivity score. The molecule in question is `CS(=O)(=O)CCNCc1ccc(-c2ccc3ncnc(Nc4ccc(OCc5cccc(F)c5)c(Cl)c4)c3c2)o1`
Outgoing: 0

Incoming: I'd like to know its drug sensitivity score. The molecule in question is `COC1=C2C[C@@H](C)C[C@H](OC)[C@H](O)[C@@H](C)/C=C(\C)[C@H](OC(N)=O)[C@@H](OC)/C=C\C=C(/C)C(=O)NC(=CC1=O)C2=O`
Outgoing: 0.88

Continuing:
Incoming: I'd like to know its drug sensitivity score. The molecule in question is `C#Cc1cccc(Nc2ncnc3cc(OC)c(OCCCCCCC(=O)NO)cc23)c1`
Outgoing: 2.65

Incoming: I'd like to know its drug sensitivity score. The molecule in question is Cc1cc(C(C)Nc2ccccc2)c2nc(N3CCOCC3)cc(=O)n2c1 (stereo not drawn)
Outgoing: 0

Incoming: I'd like to know its drug sensitivity score. The molecule in question is `C[C@@]1(C(=O)Nc2ccc(F)nc2)CCCN1c1nc(Nc2cc(C3CC3)n[nH]2)c2cccn2n1`
Outgoing: 0

Incoming: I'd like to know its drug sensitivity score. The molecule in question is `COc1cc(Nc2ncc(F)c(Nc3ccc4c(n3)NC(=O)C(C)(C)O4)n2)cc(OC)c1OC`
Outgoing: 0

====

Tested on: CAL-85-1
Assay: normalised response (% of control), CellTiter-Glo; higher = more viable cells (100 = DMSO, 0 = benzethonium chloride kill control)
Conditions: incubation time: 72 h
assay-endpoint: normalised response (%)
Numeric answer only, unit % assumed.

Incoming: Notebook entry, CAL-85-1 assay: normalised response of Cc1cc(C(C)Nc2ccccc2)c2nc(N3CCOCC3)cc(=O)n2c1 (stereo unspecified) [TGX-221] (10 nM) = ?
Outgoing: 98.2

Incoming: Notebook entry, CAL-85-1 assay: normalised response of C[C@@]1(C(=O)Nc2ccc(F)nc2)CCCN1c1nc(Nc2cc(C3CC3)n[nH]2)c2cccn2n1 (1000 nM) = ?
Outgoing: 57.6

Incoming: Notebook entry, CAL-85-1 assay: normalised response of CCS(=O)(=O)c1cccc(-c2cc(C(=O)NC3CCN(C)CC3)c(C)c3[nH]c4ncc(C)cc4c23)c1 [TAK-901] (100 nM) = ?
Outgoing: 103

Incoming: Notebook entry, CAL-85-1 assay: normalised response of COc1cc(Nc2ncc(F)c(Nc3ccc4c(n3)NC(=O)C(C)(C)O4)n2)cc(OC)c1OC [Tamatinib] (1000 nM) = ?
Outgoing: 95.1

Incoming: Notebook entry, CAL-85-1 assay: normalised response of Cn1cnc2c(F)c(Nc3ccc(Br)cc3F)c(C(=O)NOCCO)cc21 [MEK-162] (0.1 nM) = ?
Outgoing: 100

Continuing:
Incoming: Notebook entry, CAL-85-1 assay: normalised response of COc1ccc(C2=N[C@@H](c3ccc(Cl)cc3)[C@@H](c3ccc(Cl)cc3)N2C(=O)N2CCNC(=O)C2)c(OC(C)C)c1 [Nutlin-3] (10 nM) = ?
Outgoing: 101

Incoming: Notebook entry, CAL-85-1 assay: normalised response of O=C(c1ccc(OCCN2CCCCC2)cc1)c1c(-c2ccc(O)cc2)sc2cc(O)ccc12 [Raloxifene] (1000 nM) = ?
Outgoing: 94.4

Incoming: Notebook entry, CAL-85-1 assay: normalised response of COC(=O)C[C@](O)(CCCC(C)(C)O)C(=O)O[C@@H]1C(OC)=C[C@]23CCCN2CCc2cc4c(cc2[C@H]13)OCO4 [Omacetaxine] (1000 nM) = ?
Outgoing: 0.88

Incoming: Notebook entry, CAL-85-1 assay: normalised response of COC1=CC(c2cc3ccccc3[nH]2)=N/C1=C\c1[nH]c(C)cc1C [Obatoclax] (1 nM) = ?
Outgoing: 95

Incoming: Notebook entry, CAL-85-1 assay: normalised response of CC(C)C[C@H](NC(=O)[C@H](Cc1ccccc1)NC(=O)c1cnccn1)B(O)O [Bortezomib] (0.1 nM) = ?
Outgoing: 95.6

====

Tested on: SK-BR-3
Assay: normalised viability (% of control), CellTiter-Blue; higher = more viable cells (about 100 = DMSO control)
Settings: 10 nM; incubation time: 72 h
assay-endpoint: normalised viability (%)
Numeric answer only, unit % assumed.

Worked set:
Incoming: I'd like to know its normalised viability. The compound in question is `COc1cccc2c1C(=O)c1c(O)c3c(c(O)c1C2=O)C[C@@](O)(C(C)=O)C[C@@H]3O[C@H]1C[C@H](N)[C@H](O)[C@H](C)O1`
Outgoing: 87.3

Incoming: I'd like to know its normalised viability. The compound in question is `CCS(=O)(=O)c1cccc(-c2cc(C(=O)NC3CCN(C)CC3)c(C)c3[nH]c4ncc(C)cc4c23)c1`
Outgoing: 97.3

Incoming: I'd like to know its normalised viability. The compound in question is `Cn1c(=O)c(F)c(Nc2ccc(I)cc2F)c2c(=O)n(C[C@@H](O)CO)cnc21`
Outgoing: 99.4

Incoming: I'd like to know its normalised viability. The compound in question is `Cn1cnc2c(F)c(Nc3ccc(Br)cc3F)c(C(=O)NOCCO)cc21`
Outgoing: 83.4

Incoming: I'd like to know its normalised viability. The compound in question is `CC(=O)O[C@H]1C(=O)[C@@]2(C)[C@H]([C@H](OC(=O)c3ccccc3)[C@]3(O)C[C@H](OC(=O)[C@H](O)[C@@H](NC(=O)c4ccccc4)c4ccccc4)C(C)=C1C3(C)C)[C@]1(OC(C)=O)CO[C@@H]1C[C@@H]2O`
Outgoing: 25.9

Continuing:
Incoming: I'd like to know its normalised viability. The compound in question is `COc1ncc(-c2ccc3nccc(-c4ccnnc4)c3c2)cc1NS(=O)(=O)c1ccc(F)cc1F`
Outgoing: 32.7

====

Test system: MFM-223
Test: normalised response (% of control), CellTiter-Glo; higher = more viable cells (100 = DMSO, 0 = benzethonium chloride kill control)
Settings: incubation time: 72 h
assay-endpoint: normalised response (%)
Numeric answer only, unit % assumed.

Worked set:
Incoming: Notebook entry, MFM-223 assay: normalised response of COC(=O)C[C@](O)(CCCC(C)(C)O)C(=O)O[C@@H]1C(OC)=C[C@]23CCCN2CCc2cc4c(cc2[C@H]13)OCO4 [Omacetaxine] (100 nM) = ?
Outgoing: 55.4

Incoming: Notebook entry, MFM-223 assay: normalised response of C#Cc1cccc(Nc2ncnc3cc(OC)c(OCCCCCCC(=O)NO)cc23)c1 [CUDC-101] (100 nM) = ?
Outgoing: 78.2

Shifting focus to the molecule that follows.
Incoming: Notebook entry, MFM-223 assay: normalised response of CC(=O)O[C@H]1C(=O)[C@@]2(C)[C@H]([C@H](OC(=O)c3ccccc3)[C@]3(O)C[C@H](OC(=O)[C@H](O)[C@@H](NC(=O)c4ccccc4)c4ccccc4)C(C)=C1C3(C)C)[C@]1(OC(C)=O)CO[C@@H]1C[C@@H]2O [Paclitaxel] (10 nM) = ?
Outgoing: 61.6
